Test: logP determination by HPLC on a reversed-phase column (C 18), EEC Directive 79/831 Annex V.A8
Type: physicochemical
Details: value marked [b]
Listed here: items and their measured logP.

Recorded logP (compound CC(=NOCC1(CON=C(C)c2nc(C)ccc2C)CCC1)c1nc(C)ccc1C (single isomer, unassigned) [compound 761] ): 3.77^[b]

Recorded logP (compound CC(=NOCCCCON=C(C)c1ccnc(C)n1)c1cccc(C)n1 ): 3.28^[b]

Recorded logP (compound C=C(CON=C(C)c1cccc(C)n1)CON=C(CC(C)C)c1cccc(C)n1 ): 5.52^[b]

Recorded logP (compound CCCC(=NOCC(C)CON=C(C)c1cccc(C)n1)c1cccc(C)n1 (stereo not drawn) ): 5.31^[b]

Recorded logP (compound CCC(=NOCC(C)CON=C(C)c1cccc(C)n1)c1ncccc1C (stereo not drawn) ): 3.99^[b]

Recorded logP (compound CC(=NOCC(C)CON=C(C)c1ccccc1Cl)c1cccc(C)n1 (stereo not drawn) ): 5.08^[b]

Recorded logP (compound CC(=NOCCCCON=C(C)c1cccc(C)n1)c1ccc(C)nc1 ): 1.90^[b]

Recorded logP (compound CC(=NOCCCCON=C(C)c1cccc(C)n1)c1cnccn1 ): 3.02^[b]

Recorded logP (compound CCC(CC)(CON=C(C)c1ccc(C)c(C)n1)CON=C(C)c1ccc(C)c(C)n1 ): 6.50^[b]
